# System: RPMI-8226 leukemia
# protocol notes: NCI tumour cell line growth inhibition, 48 h
outcome measure: TGI

Task item: Find the recorded TGI belonging to CC(C)(C)c1cc(C2c3cc4c(cc3OC(O)(CO)C2C(=O)O)OCO4)cc(C(C)(C)C)c1O (stereo not given) (tested in a mixture with another compound) and report it.
Reply: 22.7 µM

Task item: Find the recorded TGI belonging to COc1ccc(-c2c(C#N)c(N)[nH]c(=S)c2C#N)cc1 and report it.
Reply: 74.2 µM

----------
# Test system: SR leukemia
# protocol notes: NCI tumour cell line growth inhibition, 48 h; in the data active = GI50 below about 0.43 µM; inactive = the rest
Just give me one of these, please: active, inactive

compound: COc1ccc(CCN2CCCn3c2nc2ccccc2c3=O)cc1
target under test: SR leukemia
assigned category: active

compound: ClCCCN1CCN(CCCl)CC1
target under test: SR leukemia
assigned category: inactive

compound: CCN1C(=O)N(CC)C2C1NN=c1s/c(=C3\C(=O)Nc4ccccc43)c(=O)n12 (stereo not given)
target under test: SR leukemia
assigned category: active

compound: CN(C)Cc1ccc(NC(=O)c2cncc(C#Cc3cnc(N)c4ncccc34)c2)cc1C(F)(F)F
target under test: SR leukemia
assigned category: inactive

Task item: What is the recorded call for this compound in the test? COc1ccc(C2=C(c3ccc(OC)cc3)C(=O)OC2)cc1
Reply: active

Task item: What is the recorded call for this compound in the test? CN[C@@H](C)C(=O)N[C@H](C(=O)N1CCC[C@H]1c1nc(C(=O)c2ccc(F)cc2)cs1)C1CCCCC1
Reply: inactive

Task item: What is the recorded call for this compound in the test? N.N.N.N.N#N.N#N.[Cl-].[Os+6]
Reply: inactive

Task item: What is the recorded call for this compound in the test? CN(C)S(=O)(=O)c1cccc(C(=O)Nc2nc(-c3ccc(F)c(F)c3)cs2)c1
Reply: inactive

Task item: What is the recorded call for this compound in the test? COc1ccc(-n2nc(C)c3c(Nc4ccc(NC(=O)Nc5cccc(C(F)(F)F)c5)cc4)ncnc32)cc1
Reply: inactive

Task item: What is the recorded call for this compound in the test? CCC/C=C/C=C/C(=O)OC1/C(=C/C(=O)OC)CC2CC(C(C)O)OC(=O)CC(O)CC3CC(OC(C)=O)C(C)(C)C(O)(CC4C/C(=C/C(=O)OC)CC(/C=C/C(C)(C)C1(O)O2)O4)O3 (stereo not given)
Reply: inactive
